Assay: NCI Yeast Anticancer Drug Screen. Data for the mlh1 rad18 strain (AID 175)
Details: S. cerevisiae mlh1 rad18 strain growth inhibition; at 50.0 µM; hits give high values
The panel holds about 79,000 compounds, 15% with a hit somewhere; the sample as a whole holds those more often.
Measured Quantity: growth inhibition (%)
// return numeric value only (unit: %, not printed)

Below are worked cases with known answers.
{"Molecule": "O=C(c1cccs1)N(C(=S)N1CCN(c2ccccc2)CC1)c1ccccc1", "Numeric Value": -4.3}
{"Molecule": "COc1ccc(COC(=O)Nc2ccccc2Cl)cc1", "Numeric Value": -6.35}
{"Molecule": "C=C1CN=C(Nc2ccc(F)cc2F)S1", "Numeric Value": 2.65}
{"Molecule": "CC(=O)Nc1cc2c(cc1Cl)-c1ccc(Br)cc1C2", "Numeric Value": -19.7}

## Input Could you tell me which growth inhibition is on file for "Cc1cccc(C2=N/C(=C\c3c(O)ccc4ccccc34)C2=O)c1" ?
## Output -6.65

## Input Repeat for the following molecule: "CN(C)c1nc2nc[nH]c2c(=S)n1C"
## Output 0.15

## Input Repeat for the following molecule: "S=c1[nH]ncn1/N=C/c1ccccc1Cl"
## Output 37.6

## Input Repeat for the following molecule: "COc1ccc(-c2onc(-c3ccc([N+](=O)[O-])cc3)c2C2=NCCCN2)cc1"
## Output -20.3

## Input Repeat for the following molecule: "C(=C/c1ccc2c(c1)OCO2)/c1ccccc1"
## Output 2.9

## Input Repeat for the following molecule: "COc1cccc2c1C(=O)c1c(OC)c(CBr)cc(OC)c1C2=O"
## Output 15.5

## Input Repeat for the following molecule: "N#CCOc1ccc(Cl)cc1"
## Output -3.65

## Input Repeat for the following molecule: COc1ccn(C2OCCC(OC(C)=O)C2O)c(=O)n1 (configuration not stated)
## Output 11.7
